I'd be grateful if you could share measured pKd for these entries.
# Study System: T1, GST-human NOGO-A56 (human, UniProt Q9NQC3 586-785)
# T1 construct: also called hNOGO; recombinant human NOGO; not shown: Glutathione S-transferase (GST) tag encoded by vector pGEX-6P1, N-terminal to the NOGO-A fragment; the tag and linker se
# T1 sequence: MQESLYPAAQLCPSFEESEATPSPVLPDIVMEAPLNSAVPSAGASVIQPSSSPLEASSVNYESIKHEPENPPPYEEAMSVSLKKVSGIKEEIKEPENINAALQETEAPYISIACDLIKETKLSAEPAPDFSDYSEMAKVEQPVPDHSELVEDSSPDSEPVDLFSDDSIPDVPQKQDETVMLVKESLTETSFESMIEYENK
# Run Description: SPR (Biacore 3000), GST-human NOGO-A56 on CM5 chip, antibody as analyte; single experiment
# Procedure: The binding kinetics of the anti-NOGO monoclonal antibody (mAb) to recombinantly expressed human NOGO-A (GST-human NOGO-A56) was analysed using the Biacore3000 biosensor. The hNOGO-A chip was prepared as follows: hNOGO (GST-human NOGO-A56) was immobilised to a CM5 chip by primary amine coupling using the Biacore Wizard program designed for targeted immobilisation levels. […]
Give bare numbers, as −log10 of the molar value.

Completed entries (count: 2):
Binder	pKd
H6L6 (antibody, human IgG1, kappa, V domains shown, Humanised 2A10; human gamma-1 mutated constant region, human kappa) VH: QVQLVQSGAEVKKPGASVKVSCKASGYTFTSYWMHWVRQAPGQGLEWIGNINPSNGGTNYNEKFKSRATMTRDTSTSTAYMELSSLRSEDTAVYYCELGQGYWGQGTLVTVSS VL: DIVMTQSPLSLPVTPGEPASISCRSSKSLLYKDGKTYLNWFLQRPGQSPQLLIYLMSTRASGVPDRFSGSGSGTDFTLKISRVEAEDVGVYYCQQLVEYPLTFGGGTKVEIKR	7.67
H5L6 (antibody, human IgG1, kappa, V domains shown, Humanised 2A10; human gamma-1 mutated constant region, human kappa) VH: QVQLVQSGAEVKKPGASVKVSCKASGYTFTSYWMHWVRQAPGQGLEWMGNINPSNGGTNYNEKFKSRVTMTRDTSTSTAYMELSSLRSEDTAVYYCELGQGYWGQGTLVTVSS VL: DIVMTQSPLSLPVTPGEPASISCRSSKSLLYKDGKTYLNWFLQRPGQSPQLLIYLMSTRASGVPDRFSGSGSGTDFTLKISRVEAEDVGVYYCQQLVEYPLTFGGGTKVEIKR	7.52

Value of measured pKd for the entry H700L11 (antibody, human IgG1, kappa, V domains shown, Humanised 2A10; human gamma-1 mutated constant region, human kappa) VH: QVQLVQSGAEVKKPGASVKVSCKASGYTFTSYWMHWVRQAPGQGLEWIGNINPSNGGTNYNEKFKSRATLTVDKSTSTAYMELSSLRSEDTAVYYCELGQGYWGQGTLVTVSS VL: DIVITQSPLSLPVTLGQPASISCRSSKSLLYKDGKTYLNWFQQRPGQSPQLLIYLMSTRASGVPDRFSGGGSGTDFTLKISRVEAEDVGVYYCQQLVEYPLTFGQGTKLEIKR : 7.71
